System: 855422-203-R-J1-PDC complex spheroid viability;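 also: drug exposure lasted 7 days starting on day 3 after seeding; luminescence viability as percent of DMSO vehicle wells = 100%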
Test: Anticancer human tumor 855422-203-R-J1-PDC patient-derived bladder carcinoma cell line growth inhibition
Settings: second compound 10 µM; first compound 1 µM; stronger effect = lower value
This listing pairs compounds with measured viability, T/C.
metric-name: viability, T/C (%)

compound: Nc1ncn(C2CC(O)C(CO)O2)c(=O)n1 (configuration not stated) + NC1CCC(NC2CC2c2ccccc2)CC1
observed: 80.5
--
compound: O=C(C=Cn1cnc(-c2cc(C(F)(F)F)cc(C(F)(F)F)c2)n1)NNc1cnccn1 + NC1CCC(NC2CC2c2ccccc2)CC1
observed: 31.9
--
compound: CC1(C)CCC(CN2CCN(c3ccc(C(=O)NS(=O)(=O)c4ccc(NCC5CCOCC5)c([N+](=O)[O-])c4)c(Oc4cnc5[nH]ccc5c4)c3)CC2)=C(c2ccc(Cl)cc2)C1 + NC1CCC(NC2CC2c2ccccc2)CC1
observed: 72.2
--
compound: CC(C)c1c(-c2ccccc2)nc2c(C#N)c[nH]n2c1=O + NC1CCC(NC2CC2c2ccccc2)CC1
observed: 74.6
--
compound: CC(C)c1c(-c2ccccc2)nc2c(C#N)c[nH]n2c1=O + NC1CC1c1ccc(-c2cccc(O)c2)cc1
observed: 86.9
--
compound: O=C(c1cc(Cc2n[nH]c(=O)c3ccccc23)ccc1F)N1CCN(C(=O)C2CC2)CC1 + NC1CC1c1ccc(-c2cccc(O)c2)cc1
observed: 89.6
--
compound: CC1(C)CCC(CN2CCN(c3ccc(C(=O)NS(=O)(=O)c4ccc(NCC5CCOCC5)c([N+](=O)[O-])c4)c(Oc4cnc5[nH]ccc5c4)c3)CC2)=C(c2ccc(Cl)cc2)C1 + NC1CC1c1ccc(-c2cccc(O)c2)cc1
observed: 82.5
